test system: Escherichia coli K-12 BW25113; assay: relative growth (OD600 normalised to plate interquartile mean) (fraction); higher = less growth inhibition, active = 0.2 or less; conditions: 50 µM; LB; incubation time: overnight (16-24 h)
Among all 39,000 compounds or so, about 220 (0.56%) showed activity. The full list was thinned out, with actives kept by preference.
measured-endpoint: relative growth

1) COc1cccc(S(=O)(=O)Nc2ccc3c(c2)[C@@H]2C[C@@H](CC(=O)N4CCCCC4)O[C@@H](CO)[C@@H]2O3)c1 0.993
2) Cc1ccc(S(=O)(=O)N(C)C[C@@H]2OCCCC[C@H](C)Oc3ccc(NC(=O)Nc4ccc(F)cc4)cc3C(=O)N([C@H](C)CO)C[C@H]2C)cc1 0.983
3) C[C@@H]1CCCCO[C@@H](CN(C)C(=O)CCC(F)(F)F)[C@H](C)CN([C@H](C)CO)C(=O)c2cc(NS(=O)(=O)c3ccccc3)ccc2O1 0.994
4) Cc1cn([C@@H]2C[C@H](O)[C@@H](CO)O2)c(=O)[nH]c1=O 0.988
5) Cc1ccc(S(=O)(=O)N(C)C[C@H]2Oc3c(NC(=O)c4cnccn4)cccc3C(=O)N([C@H](C)CO)C[C@@H]2C)cc1 0.975
6) COc1ccc(NC(=O)Nc2ccc3c(c2)C(=O)N([C@H](C)CO)C[C@@H](C)[C@@H](CN(C)CC2CCCCC2)OCCCC[C@@H](C)O3)cc1 0.984
7) CC(=O)OCC1=C[C@@H]2OC(=O)C3=CO[C@@H](O[C@H]4O[C@H](CO)[C@@H](O)[C@H](O)[C@H]4O)[C@H]1[C@@H]32 1.01
8) O=C(NCCCN1CCOCC1)[C@H]1N[C@H]2c3ccc(C4=CCCCC4)c(=O)n3C[C@H]2[C@@H]1CO 0.98

----------
// reported relative growth for each item listed
test system: Escherichia coli K-12 BW25113; test: relative growth (OD600 normalised to plate interquartile mean) (fraction); higher = less growth inhibition, active = 0.2 or less; conditions: 50 µM; LB; incubation time: overnight (16-24 h)
Hit rate of the full screen: of about 39,000 compounds, about 220 (0.56%) showed activity. Only a selection was taken, and actives are over-represented in it overall.

compound	relative growth
CO/N=C(\C(=O)N[C@@H]1C(=O)N2C(C(=O)O)=C(CSc3nnnn3C)CS[C@H]12)c1csc(N)n1	0.0456
Cc1ccc(S(=O)(=O)N(C)C[C@H]2Oc3c(NC(=O)NC(C)C)cccc3C(=O)N([C@@H](C)CO)C[C@H]2C)cc1	0.992
C[C@H]1CCCCO[C@@H](CN(C)Cc2ccc(C(=O)Nc3ccccc3N)cc2)[C@@H](C)CN([C@@H](C)CO)C(=O)c2cc(N(C)C)ccc2O1	0.998
CN(C)CCC=C1c2ccccc2CCc2ccccc21.Cl	0.976
CC(C)NC(=O)N(C)C[C@@H]1Oc2c(NS(=O)(=O)c3ccc(Cl)cc3)cccc2C(=O)N([C@@H](C)CO)C[C@@H]1C	1.09
CN(C)CCC=C1c2ccccc2COc2ccc(CC(=O)O)cc21.Cl	0.0442
Cc1nn(C)cc1NC(=O)C[C@@H]1CC[C@@H]2[C@H](COc3ccc(NC(=O)C4CCOCC4)cc3C(=O)N2C)O1	0.986
Cl.O=C(O)c1cn(-c2ccc(F)cc2)c2cc(N3CCNCC3)c(F)cc2c1=O	0.0456
NCCCC[C@@H](N)C(=O)N[C@@H](Cc1c[nH]c2ccccc12)C(=O)N[C@@H](CCCCN)C(=O)O	0.994
Cc1ccc(S(=O)(=O)N[C@@H]2C=C[C@H](CC(=O)NCCN3CCCCC3)O[C@@H]2CO)cc1	1.01
C[C@@H]1CCCCO[C@H](CN(C)S(=O)(=O)c2ccccc2)[C@H](C)CN([C@@H](C)CO)C(=O)c2cc(NC(=O)Nc3ccc(C(F)(F)F)cc3)ccc2O1	1
Cc1noc(C)c1S(=O)(=O)Nc1ccc2c(c1)C(=O)N([C@H](C)CO)C[C@@H](C)[C@H](CN(C)C(=O)NC1CCCCC1)O2	1.01
C[C@@H]1CN([C@H](C)CO)C(=O)c2cc(NC(=O)Nc3ccc(C(F)(F)F)cc3)ccc2O[C@H]1CN(C)Cc1ccc(C(F)(F)F)cc1	1.02
CON=C(C(=O)NC1C(=O)N2C(C(=O)OC(C)OC(C)=O)=C(COC(N)=O)CSC12)c1ccco1 (configuration not stated)	0.881
Cc1noc(C)c1NC(=O)Nc1ccc2c(c1)CC(=O)N([C@@H](C)CO)C[C@H](C)[C@H](CN(C)S(=O)(=O)c1ccccc1)O2	0.971
C[C@@H]1CCCCO[C@@H](CN(C)S(C)(=O)=O)[C@H](C)CN([C@H](C)CO)C(=O)c2cc(NS(=O)(=O)c3ccccc3)ccc2O1	0.997
C[C@H](CO)N1C[C@H](C)[C@H](CN(C)C(=O)c2ccncc2)OCCCC[C@H](C)Oc2ccc(NS(C)(=O)=O)cc2C1=O	1.02
CN1CCN(c2cc3c(cc2F)c(=O)c(C(=O)O)cn3-c2ccc(F)cc2)CC1.Cl	0.0477
COCC1=C(C(=O)OC(C)OC(=O)OC(C)C)N2C(=O)C(NC(=O)C(=NOC)c3csc(N)n3)C2SC1 (configuration not stated)	0.551
CON=C(C(=O)NC1C(=O)N2C(C(=O)[O-])=C(CSc3nc(=O)c([O-])nn3C)CSC12)c1csc(N)n1.O.O.O.[Na+].[Na+] (configuration not stated)	0.0494
CO/N=C(\C(=O)N[C@@H]1C(=O)N2C(C(=O)O[C@@H](C)OC(C)=O)=C(COC(N)=O)CS[C@H]12)c1ccco1	1.01
COc1ccc(S(=O)(=O)Nc2ccc3c(c2)CC(=O)N([C@H](C)CO)C[C@H](C)[C@H](CN(C)C(=O)Nc2c(C)noc2C)O3)cc1	1.02
O=C(CN1CCNCC1)c1ccc(F)cc1	1
CS(=O)(=O)Nc1cccc(C2=NN(c3nc(-c4ccccc4)c4cc(Cl)ccc4n3)[C@H](c3ccco3)C2)c1	1
Cc1ccc(-c2ccc3c(c2)O[C@@H](CN(C)Cc2cncnc2)[C@H](C)CN([C@H](C)CO)S3(=O)=O)cc1	1.01
COC12C(COC(N)=O)C3=C(C(=O)C(C)=C(N)C3=O)N1CC1NC12 (configuration not stated)	0.0503
OC[C@H]1O[C@H](n2nnc3ccccc32)[C@@H](O)[C@@H](O)[C@@H]1O	0.989

----------
test system: Escherichia coli K-12 BW25113; test: relative growth (OD600 normalised to plate interquartile mean) (fraction); higher = less growth inhibition, active = 0.2 or less; conditions: 50 µM; LB; incubation time: overnight (16-24 h);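 further: Wild-type cells incubated without shaking, value is the mean of two biological replicates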
Screen size: about 39,000 compounds; about 220 (0.56%) showed activity. The full list was thinned out, with actives kept by preference.

compound	relative growth
C[C@@H]1CN([C@@H](C)CO)C(=O)Cc2cc(NC(=O)Cn3cnnn3)ccc2O[C@H]1CN(C)C(=O)Nc1ccc(C(F)(F)F)cc1	0.993
CC(O)C1C(=O)N2C(C(=O)[O-])=C(SC3Cn4cnc[n+]4C3)C(C)C12 (centres undefined)	0.307
CO[C@H]1CN(C)C(=O)c2cc(NC(=O)Nc3cccc(F)c3)ccc2OC[C@@H](C)N(C(=O)Nc2c(C)noc2C)C[C@H]1C	0.978
Cc1ccc2c(c1)[C@](C)(O)CCS2	1.01
C[C@@H]1CN([C@H](C)CO)C(=O)c2cccc(NC(=O)C3CC3)c2O[C@@H]1CN(C)S(=O)(=O)c1ccccc1	1.01
C[C@H]1CN([C@@H](C)CO)C(=O)c2ccccc2-c2ccccc2CO[C@H]1CN(C)S(=O)(=O)c1ccc(C(F)(F)F)cc1	1.04
C[C@H]1CN([C@@H](C)CO)S(=O)(=O)c2ccc(C3=CCCCC3)cc2O[C@H]1CN(C)Cc1cncnc1	1.02
CN(C)C1C(O)=C(C(N)=O)C(=O)C2(O)C(O)=C3C(=O)c4c(O)cccc4C(C)(O)C3CC12.Cl (centres undefined)	0.056
CN(C)C1C(O)=C(C(N)=O)C(=O)C2(O)C(O)=C3C(=O)c4c(O)ccc(Cl)c4C(C)(O)C3CC12.Cl (centres undefined)	0.0595
CN(C)[C@@H]1C(=O)C(C(=O)NCN2CCCC2)=C(O)[C@@]2(O)C(O)=C3C(=O)c4c(O)cccc4[C@@](C)(O)[C@H]3C[C@@H]12	0.516
Oc1c(Cl)cc(Cl)cc1Sc1cc(Cl)cc(Cl)c1O	0.202
COc1ccc(CN(C)C[C@@H]2Oc3c(NC(=O)c4cc(C)nn4C)cccc3C(=O)N([C@@H](C)CO)C[C@H]2C)cc1	0.957
Cc1noc(C)c1NC(=O)Nc1cccc2c1O[C@H](CN(C)Cc1ccc(Oc3ccccc3)cc1)[C@H](C)CN([C@H](C)CO)C2=O	0.982
C[C@@H]1CN([C@H](C)CO)S(=O)(=O)c2ccc(-c3cncnc3)cc2O[C@H]1CN(C)C(=O)Cc1cccnc1	0.98

The reported numbers originate from the supplement of paper PMC9446081.
